Test details: method code SF-HPLC, from DOI: 10.1016/0378-5173(85)90030-4
// classify: if (logP < 1) met else not met

| Smiles text | Category |
| --- | --- |
| CC(C)(C)C(=O)OCn1cc2c(=O)[nH]cnc2n1 | met |
| CC(=O)OCn1ncc2c(=O)[nH]cnc21 | met |
| O=C(OCn1ncc2c(=O)[nH]cnc21)c1cccnc1 | met |
| CCCC(=O)OCn1cnc2c(cnn2COC(=O)CCC)c1=O | not met |
| CC(C)(C)C(=O)OCn1cc2c(=O)n(COC(=O)C(C)(C)C)cnc2n1 | not met |
| CCOC(=O)OCn1ncc2c(=O)[nH]cnc21 | met |
| CCCC(=O)OCn1cc2c(=O)[nH]cnc2n1 | met |
| CC(C)(C)C(=O)OCn1ncc2c(=O)[nH]cnc21 | not met |
| CCCC(=O)OCn1ncc2c(=O)[nH]cnc21 | met |
| O=C(OCn1ncc2c(=O)[nH]cnc21)c1ccccc1 | not met |
| CCN(CC)C(=O)CCC(=O)OCn1ncc2c(=O)[nH]cnc21 | met |
| CC(C)(C)C(=O)OCn1cnc2c(cnn2COC(=O)C(C)(C)C)c1=O | not met |

These measurements were taken from the SangsterLogP compilation.
